Target: Glutamate NMDA receptor
Experiment: Antagonist activity at NMDA receptor in rat cerebellar granule neurons assessed as inhibition of NMDA-induced increase in intracellular calcium level by fluorometric assay
Assay type: functional, cell-based
Value kind: IC50 (µM)
One number for each entry, in µM.

C#CCNC12CC3CC(CC(C1)c1ccccc13)O2: 34
CN(C)C12CC3CC(CC(C1)c1ccccc13)O2: 3.8
CC12CC3CC(N)(CC(C1)c1ccccc13)O2: 98
c1ccc2c(c1)C1CC3CC2CC(N2CCCCC2)(C1)O3: 30

Query: Consider the compound NC12CC3CC(CC(C1)c1ccccc13)O2 and give its measured IC50.
Response: 35

----------
Target: Glutamate NMDA receptor
Experiment: Antagonist activity at NMDA receptor in rat cerebellar granule neurons assessed as inhibition of NMDA-induced increase in intracellular calcium level by fluorometric assay
Type: functional, cell-based
Assignment: determine reported IC50 for the given molecules.

CN(Cc1ccccc1)C12CC3CC(CC(C1)c1ccccc13)O2: > 200 µM

Provide IC50 values for the following items, in order.
1. c1ccc(CNC23CC4CC(CC(C2)c2ccccc24)O3)cc1
2. c1ccc(CCNC23CC4CC(CC(C2)c2ccccc24)O3)cc1
3. CCC12CC3CC(NCc4ccccc4)(CC(C1)c1ccccc13)O2
4. NC(=O)CNC12CC3CC(CC(C1)c1ccccc13)O2
5. C#CCN(CC#C)C12CC3CC(CC(C1)c1ccccc13)O2
6. c1ccc(CN(Cc2ccccc2)C23CC4CC(CC(C2)c2ccccc24)O3)cc1

Response:
> 200 µM
> 200 µM
> 200 µM
> 200 µM
> 200 µM
> 200 µM
